I'd be grateful if you could share measured kon for these entries.
Target: T1, Human PF4 (CXCL4), biotinylated, without heparin (human, UniProt P02776 32-101, biotinylated with EZ-link-Sulfo-NHS-LC-Biotin (sites not given))
T1 construct: Immobilised on streptavidin biosensors for BLI; also called PF4 alone; platelet factor 4
T1 sequence: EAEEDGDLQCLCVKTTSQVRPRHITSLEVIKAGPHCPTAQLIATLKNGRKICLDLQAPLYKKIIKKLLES
Experiment: BLI (Octet), biotinylated PF4 without heparin on streptavidin sensors, scFv at 1 µg/mL, 1:1 model, mean ± s.d. [cont.) b]
Answers are plain numbers, in M⁻¹ s⁻¹.

- binder: "Mutant C scFv, scFv(S50N, Y53H) (scFv, VL-linker-VH; histidine-tagged, from E. coli BL21; also called Mut C; not shown: histidine tag from the pADL-22c vector) scFv: DIQMIQSQKFMSTSVGDRVTVTCKASQNVGTNVAWYQQKPGQSPNALIYNASHRYSGVPDRFTGSGSGTDFTLTITNVQSEDLADYFCQQYNSYPLTFGTGTKLDLKGGGGSGGGGSGGGGSVQLQQSGAELVKPGASVKLSCKASGYTFTNYFIYWVKQRPGQGLEWIGEINPRNGDTDFNEKFESRATLTVDKSSSTAYMQLSSLTSEDSAIYYCTRSPYGNNYGFTYWGQGTLVTVSA"
  recorded_endpoint: "kon"
  readout_units: "M⁻¹ s⁻¹"
  recorded_result: 16900
- binder: "Mutant B scFv, scFv(R18K, N152K, D180N) (scFv, VL-linker-VH; histidine-tagged, from E. coli BL21; also called Mut B; not shown: histidine tag from the pADL-22c vector) scFv: DIQMIQSQKFMSTSVGDKVTVTCKASQNVGTNVAWYQQKPGQSPNALIYSASYRYSGVPDRFTGSGSGTDFTLTITNVQSEDLADYFCQQYNSYPLTFGTGTKLDLKGGGGSGGGGSGGGGSVQLQQSGAELVKPGASVKLSCKASGYTFTKYFIYWVKQRPGQGLEWIGEINPRNGDTNFNEKFESRATLTVDKSSSTAYMQLSSLTSEDSAIYYCTRSPYGNNYGFTYWGQGTLVTVSA"
  recorded_endpoint: "kon"
  readout_units: "M⁻¹ s⁻¹"
  recorded_result: 30200

Q) Determine from records and report kon for Mutant D scFv, scFv(Y156H) (scFv, VL-linker-VH; histidine-tagged, from E. coli BL21; also called Mut D; not shown: histidine tag from the pADL-22c vector) scFv: DIQMIQSQKFMSTSVGDRVTVTCKASQNVGTNVAWYQQKPGQSPNALIYSASYRYSGVPDRFTGSGSGTDFTLTITNVQSEDLADYFCQQYNSYPLTFGTGTKLDLKGGGGSGGGGSGGGGSVQLQQSGAELVKPGASVKLSCKASGYTFTNYFIHWVKQRPGQGLEWIGEINPRNGDTDFNEKFESRATLTVDKSSSTAYMQLSSLTSEDSAIYYCTRSPYGNNYGFTYWGQGTLVTVSA
A) 25700
